molecular target: NRAS/RAF1 (Homo sapiens, UniProt P01111); construct: (1-169); His6-SUMO (N, cleaved yes); test: Protein-protein interaction (PPI) HTRF assay w.t. NRAS/RAF1; format: binding; conditions: Table 3; wt NRAS/RAF1
Sequence (P01111 with tags, fused parts or gaps): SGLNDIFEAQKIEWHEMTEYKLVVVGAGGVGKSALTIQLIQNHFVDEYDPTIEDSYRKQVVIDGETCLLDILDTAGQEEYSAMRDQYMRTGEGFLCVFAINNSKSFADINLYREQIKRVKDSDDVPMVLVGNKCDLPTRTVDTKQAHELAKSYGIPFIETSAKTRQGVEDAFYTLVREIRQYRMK
EXPERIMENTAL_READOUT: IC50

N#Cc1c(N)sc2c1C1(CC2)CN(c2nc(OCC3(CN4CCOCC4)CC3)nc(N3C[C@H]4CC[C@@H](C3)N4)n2)C1 [Compound 2]: > 100 µM

Data point: C[C@@]1(O)CCCN(c2nc(OC[C@@]34CCCN3C[C@H](F)C4)nc(N3CC4(CCc5sc(N)c(C#N)c54)C3)n2)C1 [Compound 10] ; IC50 = > 100 µM

Data point: N#Cc1c(N)sc2c1C1(CCC2)CN(c2nc(OCC3(CN4CCOCC4)CC3)nc(N3C[C@H]4CC[C@@H](C3)N4)n2)C1 [Compound 3] ; IC50 = > 100 µM

---

molecular target: GST-tagged KRAS-G12D (2-169) (Homo sapiens, UniProt P01116, G12D); assay: Nucleotide exchange assay (NEA), SOS-mediated, HTRF, KRAS G12D; assay type: biochemical; conditions: Table 4; IC50 extracted at 30 min; 20 nM SOScat; read-out: NEA G12D IC50
Sequence (P01116 2-169 isoform P01116-2 G12D): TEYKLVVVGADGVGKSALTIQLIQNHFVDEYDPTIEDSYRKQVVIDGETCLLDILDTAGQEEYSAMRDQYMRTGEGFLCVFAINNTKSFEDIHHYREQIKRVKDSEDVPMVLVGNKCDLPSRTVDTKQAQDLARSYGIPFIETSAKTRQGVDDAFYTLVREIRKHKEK
pIC50: −log10 of the molar value.
Here the recorded pIC50 is given for each entry.

Some solved entries appear below for comparison.
C[C@@]1(O)CCCN(c2nc(OC[C@]34CCCN3[C@H](COc3cc(C(F)(F)F)ncn3)CC4)nc(N3CC4(C3)SCc3sc(N)c(C#N)c34)n2)C1 (racemic): > 8.00
C[C@H](c1cccnc1N)N(C)c1nc(OCC2(N(C)C)CC2)nc(N2CC3(C2)SCc2sc(N)c(C#N)c23)n1: 6.00 to 7.00

We now examine a further molecule.
Readout pIC50 for N#Cc1c(N)sc2c1C1(CC2)CN(c2nc(OC[C@@]34CCCN3C[C@H](F)C4)nc(N(CCO)Cc3c[nH]nc3Cl)n2)C1 , test system GST-tagged KRAS-G12D (2-169) (Homo sapiens, UniProt P01116, G12D), was 4.70 to 6.00

---

target: GST-tagged KRAS-G12D (2-169) (Homo sapiens, UniProt P01116, G12D); assay: Nucleotide exchange assay (NEA), SOS-mediated, HTRF, KRAS G12D; type: biochemical; conditions: Table 4; IC50 extracted at 30 min; 20 nM SOScat; read-out: NEA G12D IC50
pIC50: −log10 of the molar value.
EXPERIMENTAL_READOUT: pIC50

Some solved entries appear below for comparison.
CN(c1nc(OCC2(CN3CCOCC3)CC2)nc(N2CC3(CCc4sc(N)c(C#N)c43)C2)n1)[C@@H]1COC[C@@H]1O (racemic): 4.70 to 6.00
CCN(c1nc(OC[C@@]23CCCN2C[C@H](F)C3)nc(N2CC3(C2)SCc2sc(N)c(C#N)c23)n1)C(C)c1nccnc1N (single isomer, unassigned) [Compound 168A]: > 8.00
C[C@H](c1cccnc1N)N(CC(F)F)c1nc(OC[C@@H]2C[C@@H](F)CN2C)nc(N2CC3(C2)SCc2sc(N)c(C#N)c23)n1: > 8.00
N#Cc1c(N)sc2c1C1(CC2)CN(c2nc(OC[C@@]34CCCN3C[C@H](F)C4)nc(N3CCCC(O)(C(F)F)C3)n2)C1 (stereo partly shown): 7.00 to 8.00
C[C@]1(O)C[C@@H](O)CN(c2nc(OC[C@@]34CCCN3C[C@H](F)C4)nc(N3CC4(CCc5sc(N)c(C#N)c54)C3)n2)C1: 6.00 to 7.00

Data point: N#Cc1c(N)sc2c1C1(CC2)CN(c2nc(OC[C@@]34CCCN3C[C@H](F)C4)nc(N3CCC[C@@H](CO)C3)n2)C1 ; pIC50 = 7.00 to 8.00

Data point: N#Cc1c(N)sc2c1C1(CN(c3nc(OC[C@@]45CCCN4C[C@H](F)C5)nc(Oc4cn[nH]c4)n3)C1)SC2 ; pIC50 = 6.00 to 7.00

Data point: CC(C#N)N(CC(F)F)c1nc(OC[C@@]23CCCN2C[C@H](F)C3)nc(N2CC3(C2)SCc2sc(N)c(C#N)c23)n1 (stereo partly shown) ; pIC50 = > 8.00

Data point: CN(c1nc(OC[C@@]23CCCN2C[C@H](F)C3)nc(N2CC3(CCc4sc(N)c(C#N)c43)C2)n1)[C@@H]1CCC[C@@H]1O (racemic) ; pIC50 = 6.00 to 7.00

Data point: C#CCN(CC#N)c1nc(OC[C@@]23CCCN2C[C@H](F)C3)nc(N2CC3(C2)SCc2sc(N)c(C#N)c23)n1 ; pIC50 = > 8.00

Data point: N#Cc1c(N)sc2c1C1(CC2)CN(c2nc(OCC3(C#N)CC3)nc(OC[C@@]34CCCN3C[C@H](F)C4)n2)C1 ; pIC50 = 7.00 to 8.00

Data point: CN(C)CC1(COc2nc(N3CC4(C3)SCc3sc(N)c(C#N)c34)nc(N3CCC[C@@](C)(O)C3)n2)CC1(F)F (stereo partly shown) ; pIC50 = > 8.00

Data point: N#Cc1c(N)sc2c1C1(CN(c3nc(OCC4(CN5CCOCC5)CC4)nc(N4C[C@@H]5CC[C@@H](N5)C4CO)n3)C1)SC2 (stereo partly shown) ; pIC50 = > 8.00
